test system: Cucurbita maxima x Cucurbita moschata; experiment: Phytotoxicity against inter-specific squash hybrid Cucurbita moschata x Cucurbita maxima (Strong tosa) rootstock seedlings assessed as stunting; format: organism-based; conditions: in vivo; note: test concentration or dose not given here
Quantity Kind: Activity

compound="CC(C)CC(C)c1sccc1NC(=O)c1cn(C)nc1C(F)(F)F (centres undefined)" tested_system="Cucurbita maxima x Cucurbita moschata" quantity_kind=Activity result=Toxic
compound=S1SSSSSSS1 tested_system="Cucurbita maxima x Cucurbita moschata" quantity_kind=Activity result=Non-toxic
compound="OO [HYDROGEN PEROXIDE]" tested_system="Cucurbita maxima x Cucurbita moschata" quantity_kind=Activity result=Non-toxic
compound="O=C([O-])O.[K+] [POTASSIUM BICARBONATE]" tested_system="Cucurbita maxima x Cucurbita moschata" quantity_kind=Activity result=Non-toxic

---

system: Cucurbita maxima x Cucurbita moschata; test: Phytotoxicity against inter-specific squash hybrid Cucurbita moschata x Cucurbita maxima (Strong tosa) rootstock seedlings; format: organism-based; settings: in vivo; note: test concentration or dose not given here
Quantity Kind: Activity

molecule="O=C([O-])O.[K+] [POTASSIUM BICARBONATE]" result=Non-toxic
molecule="COC(=O)NC(=S)Nc1ccccc1NC(=S)NC(=O)OC [THIOPHANATE METHYL]" result=Non-toxic
molecule="OO [HYDROGEN PEROXIDE]" result=Non-toxic
molecule=S1SSSSSSS1 result=Non-toxic

---

test system: Lagenaria siceraria; assay: Phytotoxicity against Lagenaria siceraria 'Emphasis' rootstock seedlings assessed as stunting; format: organism-based; conditions: in vivo; note: test concentration or dose not given here
Quantity Kind: Activity

compound=S1SSSSSSS1 tested_system="Lagenaria siceraria" result=Non-toxic
compound="OO [HYDROGEN PEROXIDE]" tested_system="Lagenaria siceraria" result=Non-toxic
compound="CC(C)CC(C)c1sccc1NC(=O)c1cn(C)nc1C(F)(F)F (centres undefined)" tested_system="Lagenaria siceraria" result=Toxic
compound="O=C([O-])O.[K+] [POTASSIUM BICARBONATE]" tested_system="Lagenaria siceraria" result=Non-toxic
